The reported numbers originate from ChEMBL document CHEMBL1125801.

# assay_protocol: Partition coefficient (logP)
# Type: physicochemical
# condition_notes: octanol/water
measurement_kind: logP
Returns: the value as a bare number; no unit string appended.

Specify logP for COc1cc2c(c(OC)c1OC)-c1cc/c(=N/CC(F)(F)F)c(O)cc1C(NC(C)=O)CC2 (stereo not given) and stop.
1.45

Specify logP for CC/N=c1/ccc2c(cc1O)C(NC(C)=O)CCc1cc(OC)c(OC)c(OC)c1-2 (stereo not given) and stop.
2.34

Specify logP for COc1cc2c(c(OC)c1OC)-c1ccc(=O)c(OC)cc1C(NC(C)=O)CC2 (stereo not given) and stop.
1

Specify logP for COc1cc2c(c(OC)c1OC)-c1cc/c(=N/CCF)c(O)cc1C(NC(C)=O)CC2 (stereo not given) and stop.
1.7

Specify logP for COc1c(O)cc2c(c1OC)-c1ccc(SC)c(=O)cc1C(NC(C)=O)CC2 (stereo not given) and stop.
1.43
